Molecular target: T1, Human CD24-mFc (human, UniProt P25063 27-59)
T1 chain: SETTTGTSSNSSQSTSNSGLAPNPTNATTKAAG
Test: SPR (BIAcore)
result type: Kd (nM)
State the answer as a number, implicitly in nM.

Note to self: Kd recorded for 101H9G9A2 (antibody, V domains shown) VH: QVQLLQPGAELVRPGSSVKLSCKASDYTFTSYWMDWVKQRPGQGLEWIGNIYPSDSKTHYNQKFKDKATLTVDKSSSTAYMQLNSLTSEDSAVYYCARRGGYYAYAMDYWGQGTSVTVSS VL: DIVMTQSPSSLSVSAGEKVTMRCKSSQSLLNSGNQDNYLAWYQQKPGQPPKLLLYGARIRESGVPDRFIGSGSGTDFTLTISSVQAEDLAVYYCQNDHSYPYTFGGGTKVEIK was 1.24

Note to self: Kd recorded for 107D10D11 (antibody, V domains shown) VH: QIQLKQSGPGLVQPSQSLSITCTVSGFSLSSYGVNWVRQSPGKGLEWLGMIWSGGNTDYNAAFISRVSFTKDNSKSQVFFTMNSLQADDTAIYYCARIWYYGMDYWGQGTSVTVSS VL: DIVMTQSQKFMSTTVGDRVSITCKASQNVGTAVAWFQQKPGQSPKILIYSASIRYPGVPDRFTGSGSGTDFTLTTSNVQSEDLADYFCLQYITFPRTFGGGTKLYIK was 0.762

Note to self: Kd recorded for 110D4G4 (antibody, V domains shown) VH: EVQLQQSGPGLVKPGASVKISCRASGYLFTGYYMNWVKQSPEKSLEWIGEINPNTGDPRYDQKFKAKATLTVDRSSSTAYMHLKSLTSEDSAVYFCARRDYGTSLDYWGQGTTLTVTS VL: DVQITQSPSYLAASPGETITINCRASKSISKYLAWYQEKPGKTNKLLIYSGSTLQSGIPSRFSGSGSGSDFTLTISSLEPEDFAMYYCQQHNEYPLTFGAGTKLELK was 0.124

Note to self: Kd recorded for 81A1F8 (antibody, V domains shown) VH: EVQLQQSGPELVKPGASVKISCKATGYLFTGYYMNWVKQSPEKSLEWIGEINPNTGDTNNNQKFKAKATMTVDRSSSTAYMQLKRLTSEDSAVYYCVRRDYGTSLDYWGQGTTLTVSS VL: DVQITQSPSYLAASPGETITINCRASKSINKYLAWYQEKPGKTNKLLIHSGSTLQSGIPSRFSGSRSGTDFTLTISNLEPEDFAMYYCQQHNEYPITFGAGTKLELK was 0.095
